Target: T1, human CD3 E&D complex protein (Sino Biological Inc., CT026H0323H) (human, UniProt P07766 23-126; P04234 22-105)
T1 construct: bought heterodimer; also called human CD3 protein (CT026H0323H)
T1 sequence (P07766 23-126, chain 1 of 2): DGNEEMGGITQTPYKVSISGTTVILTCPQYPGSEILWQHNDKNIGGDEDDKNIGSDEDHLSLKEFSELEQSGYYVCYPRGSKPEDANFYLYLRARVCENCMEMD
T1 sequence (P04234 22-105, chain 2 of 2): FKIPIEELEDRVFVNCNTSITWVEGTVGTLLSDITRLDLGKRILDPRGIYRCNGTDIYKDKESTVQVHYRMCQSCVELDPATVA
Test: BLI, antibody on sensor
Experimental: 100 μl SD buffer, various antibodies, human CD3 E&D complex protein (Sino Biological Inc., CT026H0323H), and cynomolgus monkey CD3 E&D complex protein (Sino Biological Inc., CT032-00323H) were added into 96-well black polystyrene semi-quantitative micro-well plate (Greiner, 675076) respectively. Fortebio Octet Red 96 was used for detection, and the sensor position was selected according to the sample position. […]
The following binders are shown together with reported Kd values.
Return type: number; implicit unit nM.

hzsp34.40 (antibody, human IgG1, kappa, L234A L235A, V domains shown, IgG1 L234A L235A, kappa) VH: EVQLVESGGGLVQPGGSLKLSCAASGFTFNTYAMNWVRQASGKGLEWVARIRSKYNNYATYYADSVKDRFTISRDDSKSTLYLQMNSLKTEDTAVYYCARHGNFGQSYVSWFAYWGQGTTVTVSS VL: EIVMTQSPATLSVSPGERATLSCRSSTGAVTTSNYANWVQQKPGQAPRGLIGGTNKRAPGVPARFSGSGSGTEFTLTISSLQSEDFAVYYCALWYSNLWVFGQGTKLTVLR    16.8
hzsp34.43 (antibody, human IgG1, kappa, L234A L235A, V domains shown, IgG1 L234A L235A, kappa) VH: EVQLVESGGGLVQPGGSLKLSCAASGFTFNTYAMNWVRQASGKGLEWVGRIRSKYNNYATYYADSVKDRFTISRDDSKSTLYLQMNSLKTEDTAVYYCARHGNFGNSYVSWFAYWGQGTTVTVSS VL: EIVMTQSPATLSVSPGERATLSCRSSTGAVTTSNYANWVQQKPGQAPRGLIGGTNKRAPGVPARFSGSGSGDEFTLTISSLQSEDFAVYYCALWYSNLWVFGQGTKLTVLR    12.6

Prompt line: Find the recorded Kd belonging to hzsp34.20 (antibody, human IgG1, lambda, L234A L235A, V domains shown, IgG1 L234A L235A, lambda) VH: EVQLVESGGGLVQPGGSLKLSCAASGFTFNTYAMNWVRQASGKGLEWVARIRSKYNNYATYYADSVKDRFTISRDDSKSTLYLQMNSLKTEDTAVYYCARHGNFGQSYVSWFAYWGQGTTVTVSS VL: QAVVTQEPSLTVSPGGTVTLTCRSSTGAVTTSNYANWVQQKPGQAPRGLIGGTNKRAPGVPARFSGSLLGGKAALTLLGAQPEDEAEYYCALWYSNLWVFGQGTKLTVLG and report it.
Response line: 0.847
